TESTED ON: human Claudin18.2 (human)
ASSAY INFO: cell-based or functional assay
MEASURED PROPERTY: CDC EC50 (µg/mL)

BINDER: 254A8D5 (antibody, V domains shown) VH: EVMLVESGGGLVKPGGSLKLSCAASGFTFSSYTVSWVRQTPEKRLEWVATSIVGSTYTYFPDSVKGRFTISRDFAKNTLFLQMSSLRSEDTAMYYCSRLGRGNAMDYWGQGTSVSVSS VL: DIVMTQSPSSLTVTAGEKVTLNCRSSQSLLNSGNQKNYLTWYQQKPGQPPKLLIYWASTRESGVPDRFTGSGSGTDFTLTISSVQADDLAVYYCQNGYSYPFTFGSGTKLEIK
UNIT SYMBOL: µg/mL
REPORTED: 1.19
//
BINDER: 194D3B2 (antibody, V domains shown) VH: QAYLQQSGAELVRSGASVKMSCKASGYPFTSYNMHWVKQTPGQGLEWVGYIYPGNGGTNYNQKFRDKATLTADTSSSTAYMQISRLTSDDSAVYFCLTGRGFAYWGQGTLVTVSA VL: DIVMTQSPSSLIVTPGERVTMSCKSSQSLLNSGNQKNYLTWYQQKPGQPPKLLIYRASTRESGVPDRFTGSGSGTDFTLTISSVQAEDLAVYYCQNDYSYPLTFGIGTKLELK
UNIT SYMBOL: µg/mL
REPORTED: 0.275
//
BINDER: 414H6G2 (antibody, V domains shown) VH: DVQLVESGGGLVQPGGSRKLSCAASGFTFSGFGMHWIRQTAEKGLEWVAYISSGSRPIYYADTVQGRFTISRDNPKNTLFLQMTSLRSEDTAMYFCARFYYGNSFDHWGQGTLVTVSA VL: DIVMTQSPSFLTVTAGEKVTMSCKSSQSLLNSGNQKNYLTWYQQKPGQPPKLLIYWASTRESGVPDRFTGSGSGTDFTLTISSVQAEDLALYYCQNAYSFPLTFGAGTKLELK
UNIT SYMBOL: µg/mL
REPORTED: 0.402
//
BINDER: 200A4H8 (antibody, V domains shown) VH: QVQLKQSGPGLVQPSQSLSITCTVSGFSLTRYGVHWVRQSPGKGLEWLGVIWSGGNTDYNAAFISRLNIRKDNSKSQVFFKMNSLKPNDTAIYYCARAAYFGNSFDYWGQGTTLTVSS VL: DIVMTQSPSSLPVTAGEKVTMSCKSSQSLLNSGNQKNYLTWYQQKPGQPPKLLIYWASTRDSGVPDRFTGSGSGTDFTLTISSVQAEDLAVYYCQNNYIYPLTFGAGTKLELK
UNIT SYMBOL: µg/mL
REPORTED: 2.27
//
BINDER: 203A6C9 (antibody, V domains shown) VH: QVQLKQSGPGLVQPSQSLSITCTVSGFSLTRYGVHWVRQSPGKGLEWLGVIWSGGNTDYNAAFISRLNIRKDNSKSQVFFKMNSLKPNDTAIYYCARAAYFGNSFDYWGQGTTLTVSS VL: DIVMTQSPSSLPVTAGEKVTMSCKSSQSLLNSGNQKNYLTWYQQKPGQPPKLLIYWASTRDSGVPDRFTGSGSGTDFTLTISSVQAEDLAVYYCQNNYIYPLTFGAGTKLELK
UNIT SYMBOL: µg/mL
REPORTED: 0.319
